Reference source for all entries: ChEMBL document CHEMBL5537159

Experiment: AUClast in human at 60 mg/kg, po administered as single dose and measured upto 144 hrs
Assay type: ADME, organism-based
Settings: in vivo
MEASURED METRIC: AUC(0-t) at 144 h (ng·h/mL)
// units = ng·h/mL; emit number, no label

Supply AUC(0-t) at 144 h value. Item: Cc1ccc(NC(=O)C[C@H](CCC(=O)O)c2noc([C@H]3C[C@@H](CC(C)(C)C)C3)c2C2CC2)c(Cl)c1
11000

###

Experiment: MRT in CD(SD) rat at 3 mg/kg, po administered as single dose and measured after 24 hrs
Assay type: ADME, organism-based
Settings: in vivo
Each entry below carries its recorded MRT.
Respond with the bare value in h.

Using the record for Cc1ccc(NC(=O)C[C@H](CCC(=O)O)c2nnn([C@H]3C[C@@H](CC(C)(C)C)C3)c2C2CC2)c(Cl)c1 , state its measured MRT.
3.6

Given Cc1ccc(NC(=O)C[C@H](CCC(=O)O)n2nnc([C@H]3C[C@@H](CC(C)(C)C)C3)c2C2CC2)c(Cl)c1 , respond with its MRT.
2.5

###

Molecular target: Prostaglandin G/H synthase 1 (Ovis aries)
Sequence (P05979 whole entry): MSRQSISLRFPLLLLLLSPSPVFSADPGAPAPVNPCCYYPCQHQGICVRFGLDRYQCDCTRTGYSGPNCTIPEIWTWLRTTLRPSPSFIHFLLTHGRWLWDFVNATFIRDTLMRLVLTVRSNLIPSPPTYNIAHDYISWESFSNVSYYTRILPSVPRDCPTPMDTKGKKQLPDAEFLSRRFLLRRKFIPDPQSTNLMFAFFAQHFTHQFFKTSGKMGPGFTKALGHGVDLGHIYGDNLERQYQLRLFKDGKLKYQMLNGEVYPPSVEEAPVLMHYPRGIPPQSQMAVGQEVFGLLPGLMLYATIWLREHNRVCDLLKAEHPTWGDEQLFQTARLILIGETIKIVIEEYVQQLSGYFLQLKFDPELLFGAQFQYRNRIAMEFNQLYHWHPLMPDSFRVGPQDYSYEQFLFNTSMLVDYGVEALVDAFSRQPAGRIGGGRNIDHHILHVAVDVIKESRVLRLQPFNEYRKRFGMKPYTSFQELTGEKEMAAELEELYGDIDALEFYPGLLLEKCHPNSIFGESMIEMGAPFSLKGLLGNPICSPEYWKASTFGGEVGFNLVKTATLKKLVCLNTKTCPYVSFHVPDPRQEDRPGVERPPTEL
pIC50: −log10 of the molar value.
MEASURED METRIC: pIC50

Specify the recorded pIC50 for Cc1ccc(NC(=O)C[C@H](CCC(=O)O)c2noc([C@H]3C[C@@H](CC(C)(C)C)C3)c2C2CC2)c(Cl)c1 , system: Prostaglandin G/H synthase 1 (Ovis aries).
< 5.00

###

Biological target: Cytochrome P450 1A2 (Homo sapiens, UniProt P05177)
Sequence (P05177 whole entry): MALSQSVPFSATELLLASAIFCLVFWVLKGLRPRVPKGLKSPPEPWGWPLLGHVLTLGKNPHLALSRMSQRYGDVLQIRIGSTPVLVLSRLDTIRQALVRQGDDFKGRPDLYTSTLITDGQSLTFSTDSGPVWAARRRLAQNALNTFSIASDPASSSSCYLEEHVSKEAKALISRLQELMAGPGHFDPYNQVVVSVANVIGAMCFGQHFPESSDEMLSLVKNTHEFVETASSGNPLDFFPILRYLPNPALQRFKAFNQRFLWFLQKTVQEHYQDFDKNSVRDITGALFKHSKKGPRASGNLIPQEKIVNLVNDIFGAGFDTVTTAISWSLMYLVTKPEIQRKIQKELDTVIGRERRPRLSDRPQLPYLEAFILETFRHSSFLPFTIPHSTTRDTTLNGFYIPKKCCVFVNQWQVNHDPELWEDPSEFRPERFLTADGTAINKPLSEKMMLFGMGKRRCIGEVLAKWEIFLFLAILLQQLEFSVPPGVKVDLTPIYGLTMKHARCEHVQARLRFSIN
pIC50: −log10 of the molar value.
MEASURED METRIC: pIC50

Fill in: pIC50 on Cytochrome P450 1A2 (Homo sapiens, UniProt P05177), entry Cc1ccc(NC(=O)C[C@H](CCC(=O)O)c2noc([C@H]3C[C@@H](CC(C)(C)C)C3)c2C2CC2)c(Cl)c1
< 5.00

###

Assay: Tmax in human at 1600 […], po administered as single dose and measured upto 144 hrs
Assay type: ADME, organism-based
Details: in vivo
MEASURED METRIC: Tmax (h)
Give the number; h is assumed, so skip it.

Indicate its recorded Tmax; the compound in question is Cc1ccc(NC(=O)C[C@H](CCC(=O)O)c2noc([C@H]3C[C@@H](CC(C)(C)C)C3)c2C2CC2)c(Cl)c1
3.54

###

Target: D(1A) dopamine receptor (Homo sapiens)
Sequence (P21728 whole entry): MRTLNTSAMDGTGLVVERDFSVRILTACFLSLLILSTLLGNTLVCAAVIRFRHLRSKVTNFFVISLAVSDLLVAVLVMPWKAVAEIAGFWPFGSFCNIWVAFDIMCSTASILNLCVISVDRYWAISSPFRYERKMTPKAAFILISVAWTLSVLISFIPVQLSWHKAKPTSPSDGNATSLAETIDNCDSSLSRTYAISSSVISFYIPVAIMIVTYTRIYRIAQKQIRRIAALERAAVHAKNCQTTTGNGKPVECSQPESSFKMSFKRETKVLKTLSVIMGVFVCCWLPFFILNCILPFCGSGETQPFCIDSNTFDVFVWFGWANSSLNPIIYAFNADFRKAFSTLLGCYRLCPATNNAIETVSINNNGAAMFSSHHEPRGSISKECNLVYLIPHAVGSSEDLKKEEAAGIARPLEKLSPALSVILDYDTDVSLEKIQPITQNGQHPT
Assay: Inhibition of human dopamine D1 receptor
MEASURED METRIC: pIC50
In plain terms, pIC50 is the concentration in mol/L turned into minus its base-10 logarithm.

With D(1A) dopamine receptor (Homo sapiens) as the test system, provide measured pIC50 for this compound: Cc1ccc(NC(=O)C[C@H](CCC(=O)O)c2noc([C@H]3C[C@@H](CC(C)(C)C)C3)c2C2CC2)c(Cl)c1
5.21

###

Biological target: 5-hydroxytryptamine receptor 2A (Homo sapiens, UniProt P28223)
Sequence (P28223 whole entry): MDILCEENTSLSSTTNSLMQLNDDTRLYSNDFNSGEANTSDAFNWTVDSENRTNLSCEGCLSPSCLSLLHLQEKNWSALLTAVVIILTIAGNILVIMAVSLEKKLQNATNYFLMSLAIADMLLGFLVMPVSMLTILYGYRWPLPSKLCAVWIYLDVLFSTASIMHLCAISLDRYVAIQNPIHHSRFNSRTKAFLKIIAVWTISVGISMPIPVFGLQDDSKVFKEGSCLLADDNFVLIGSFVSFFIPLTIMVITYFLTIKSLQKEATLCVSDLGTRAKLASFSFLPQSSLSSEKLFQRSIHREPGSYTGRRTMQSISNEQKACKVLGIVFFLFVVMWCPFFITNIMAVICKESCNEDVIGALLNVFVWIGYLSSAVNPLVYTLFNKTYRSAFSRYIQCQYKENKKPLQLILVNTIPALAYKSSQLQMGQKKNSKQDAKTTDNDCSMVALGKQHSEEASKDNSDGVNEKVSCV
Test: Inhibition of human 5-HT2A receptor
MEASURED METRIC: IC50

// Input: Cc1ccc(NC(=O)C[C@H](CCC(=O)O)c2noc([C@H]3C[C@@H](CC(C)(C)C)C3)c2C2CC2)c(Cl)c1 . Output its IC50 only.
> 10 µM

###

Molecular target: Beta-2 adrenergic receptor (Homo sapiens, UniProt P07550)
Sequence (P07550 whole entry): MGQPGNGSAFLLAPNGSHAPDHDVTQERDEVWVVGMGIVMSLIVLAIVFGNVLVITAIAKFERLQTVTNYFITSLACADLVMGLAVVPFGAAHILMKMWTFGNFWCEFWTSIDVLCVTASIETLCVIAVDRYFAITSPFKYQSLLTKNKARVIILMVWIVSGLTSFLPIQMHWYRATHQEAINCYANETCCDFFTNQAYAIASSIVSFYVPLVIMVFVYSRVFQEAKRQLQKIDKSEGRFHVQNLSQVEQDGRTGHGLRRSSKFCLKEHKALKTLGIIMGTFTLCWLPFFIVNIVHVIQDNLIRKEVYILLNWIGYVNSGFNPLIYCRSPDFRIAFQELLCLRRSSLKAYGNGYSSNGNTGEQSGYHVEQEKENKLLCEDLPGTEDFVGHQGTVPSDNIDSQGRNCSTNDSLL
MEASURED METRIC: IC50

Report IC50 from Beta-2 adrenergic receptor (Homo sapiens, UniProt P07550) testing of Cc1ccc(NC(=O)C[C@H](CCC(=O)O)c2noc([C@H]3C[C@@H](CC(C)(C)C)C3)c2C2CC2)c(Cl)c1
> 10 µM
